We begin with a simple list: items and their reported pIC50.
molecular target: recombinant full-length human GSK3β (Homo sapiens); construct: recombinant full-length human GSK3β (Upstate); purchased Upstate; experiment: Luciferase-coupled cell-free GSK3β kinase assay; assay type: biochemical; details: Table 2
Sequence (P49841 whole entry): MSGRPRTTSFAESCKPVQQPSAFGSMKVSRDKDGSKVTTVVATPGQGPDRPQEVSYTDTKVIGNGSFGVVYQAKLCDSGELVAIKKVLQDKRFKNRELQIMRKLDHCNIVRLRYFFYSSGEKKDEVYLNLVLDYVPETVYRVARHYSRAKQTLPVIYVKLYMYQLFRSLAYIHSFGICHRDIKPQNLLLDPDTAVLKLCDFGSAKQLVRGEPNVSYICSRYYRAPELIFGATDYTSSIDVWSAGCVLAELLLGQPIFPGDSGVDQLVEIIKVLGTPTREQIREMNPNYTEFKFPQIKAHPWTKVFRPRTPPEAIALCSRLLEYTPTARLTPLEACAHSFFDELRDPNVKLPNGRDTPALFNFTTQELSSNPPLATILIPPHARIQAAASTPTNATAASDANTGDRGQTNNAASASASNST
pIC50: −log10 of the molar value.

# annotated cases, reported pIC50 shown
compound	measurement
Nc1c(F)c(NCCCc2ccccc2)c2c3c1c(=O)c(C(=O)O)cn3CCO2 [compound 8]	< 6.00
CC1(C)Cn2cc(C(=O)O)c(=O)c3c(N)c(F)c(NCCCc4ccccc4)c(c32)O1 [compound 59]	6.30 to 7.00
COc1c(NCCNc2ccccn2)c(F)c(N)c2c(=O)c(C(=O)O)cn(Cc3ccccc3)c12 [Example 130]	< 6.00

# ---- query compound ----
Log: recombinant full-length human GSK3β (Homo sapiens), compound C[C@H]1COc2c(NCCCn3ccnc3)c(F)c(N)c3c(=O)c(C(=O)O)cn1c23 [compound 20] , pIC50 = 6.30 to 7.00
